Examples of compounds with documented pIC50 follow.
- subject-of-test: 11-beta-hydroxysteroid dehydrogenase 1 (Homo sapiens, UniProt P28845)
- Sequence (P28845 whole entry): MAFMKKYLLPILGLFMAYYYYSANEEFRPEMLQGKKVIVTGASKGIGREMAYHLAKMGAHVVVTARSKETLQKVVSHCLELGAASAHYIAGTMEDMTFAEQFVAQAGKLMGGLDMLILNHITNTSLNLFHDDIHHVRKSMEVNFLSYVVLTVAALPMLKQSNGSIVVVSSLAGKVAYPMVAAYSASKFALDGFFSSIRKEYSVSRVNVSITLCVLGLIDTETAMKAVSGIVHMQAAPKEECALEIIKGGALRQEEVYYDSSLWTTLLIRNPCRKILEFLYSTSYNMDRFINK
- assay-method-text: Inhibition of human 11beta-HSD1 transfected in CHOP cells
- Assay type: cell-based
pIC50: −log10 of the molar value.
measurement-kind: pIC50

[[record]]
molecule = "O=C(/C=C/c1ccccc1Br)/C=C/c1ccccc1Br"
measurement_kind = "pIC50"
value_observed = 6.94

[[record]]
molecule = "O=C1/C(=C/c2ccc(O)cc2)CCC/C1=C\\c1ccc(O)cc1"
measurement_kind = "pIC50"
value_observed = 6.71

[[record]]
molecule = "COc1cc(/C=C/C(=O)/C=C/c2ccc(O)c(OC)c2)ccc1O"
measurement_kind = "pIC50"
value_observed = 6.59

[[record]]
molecule = "O=C(/C=C/c1ccc(O)cc1)/C=C/c1ccc(O)cc1"
measurement_kind = "pIC50"
value_observed = 6.08

[[record]]
molecule = "O=C(/C=C/c1ccc(F)cc1)/C=C/c1ccc(F)cc1"
measurement_kind = "pIC50"
value_observed = 6.29

[[record]]
molecule = "COc1cc(/C=C/C(=O)CC(=O)/C=C/c2ccc(O)c(OC)c2)ccc1O"
measurement_kind = "pIC50"
value_observed = 5.35

[[record]]
molecule = "O=C1/C(=C/c2ccccc2Br)CC/C1=C\\c1ccccc1Br"
measurement_kind = "pIC50"
value_observed = 6.84

[[record]]
molecule = "O=C1/C(=C/c2ccc(F)cc2)CC/C1=C\\c1ccc(F)cc1"
measurement_kind = "pIC50"
value_observed = 6.51

[[record]]
molecule = "O=C1/C(=C/c2cccc(Br)c2)CC/C1=C\\c1cccc(Br)c1"
measurement_kind = "pIC50"
value_observed = 7.01

[[record]]
molecule = "O=C1/C(=C/c2ccccc2Br)CCC/C1=C\\c1ccccc1Br"
measurement_kind = "pIC50"
value_observed = 6.46

[[record]]
molecule = "O=C1/C(=C/c2ccc(F)cc2)CCC/C1=C\\c1ccc(F)cc1"
measurement_kind = "pIC50"
value_observed = 6.58


====

Recorded inhibition, one value per entry.
- subject-of-test: UniProt:P80365
- Sequence (P80365 whole entry): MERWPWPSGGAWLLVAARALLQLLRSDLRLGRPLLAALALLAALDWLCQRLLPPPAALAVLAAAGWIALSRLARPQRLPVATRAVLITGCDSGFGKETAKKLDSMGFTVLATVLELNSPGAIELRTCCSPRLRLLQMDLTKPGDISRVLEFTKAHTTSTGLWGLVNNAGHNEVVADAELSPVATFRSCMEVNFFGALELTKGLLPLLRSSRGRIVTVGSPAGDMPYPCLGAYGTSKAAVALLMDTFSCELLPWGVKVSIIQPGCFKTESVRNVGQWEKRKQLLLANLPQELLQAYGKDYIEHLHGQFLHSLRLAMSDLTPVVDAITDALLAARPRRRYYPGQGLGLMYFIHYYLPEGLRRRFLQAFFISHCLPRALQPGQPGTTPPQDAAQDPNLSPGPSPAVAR
- assay-method-text: Inhibition of 11beta-HSD2 in human kidney microsomes using [3H]-cortisol as substrate assessed as formation of cortisone at 100 uM after 30 mins by radiometric analysis relative to control
- condition-context: Microsome
measurement-kind: inhibition (%)

[[record]]
compound = "CCOc1ccc(/C=C/C(=O)/C=C/c2ccc(OCC)cc2)cc1"
value_observed = 8

[[record]]
compound = "COc1cc(/C=C/C(=O)/C=C/c2cc(OC)c(OC)c(OC)c2)cc(OC)c1OC"
value_observed = 1

[[record]]
compound = "CN(C)CCCOc1ccc(/C=C2\\CC/C(=C\\c3ccc(OCCCN(C)C)cc3)C2=O)cc1"
value_observed = 24

[[record]]
compound = "COc1cc(/C=C2\\CCC/C(=C\\c3ccc(OC4CCCCO4)c(OC)c3)C2=O)ccc1OC1CCCCO1 (stereo not given)"
value_observed = 6

[[record]]
compound = "COc1cc(/C=C2\\CCC/C(=C\\c3cc(OC)c(OC)c(OC)c3)C2=O)cc(OC)c1OC"
value_observed = 13

[[record]]
compound = "COc1cc(/C=C2\\CC/C(=C\\c3ccc(O)c(OC)c3)C2=O)ccc1O"
value_observed = 13

[[record]]
compound = "C=CCOc1ccc(/C=C2\\CCC/C(=C\\c3ccc(OCC=C)c(OC)c3)C2=O)cc1OC"
value_observed = 6

[[record]]
compound = "O=C1/C(=C/c2cccc(Br)c2)CC/C1=C\\c1cccc(Br)c1"
value_observed = 23

[[record]]
compound = "O=C1/C(=C/c2ccc(F)cc2)CCC/C1=C\\c1ccc(F)cc1"
value_observed = 24

[[record]]
compound = "O=C(/C=C/c1ccc(OC2CCCCO2)cc1)/C=C/c1ccc(OC2CCCCO2)cc1 (stereo not given)"
value_observed = 13

